molecular target: Fc-fusion protein of human PSMA (hPSMA-Fc) (Homo sapiens); construct: purchased Acro Biosystems PSA-H5264; experiment: Surface plasmon resonance assay (Biacore T200, single cycle kinetic); type: binding; details: pKD category for PSMA SPR activity assay, hPSMA-Fc, 25° C.; read-out: pKD CAT (converted)
Sequence (Q04609 44-750 limits assumed): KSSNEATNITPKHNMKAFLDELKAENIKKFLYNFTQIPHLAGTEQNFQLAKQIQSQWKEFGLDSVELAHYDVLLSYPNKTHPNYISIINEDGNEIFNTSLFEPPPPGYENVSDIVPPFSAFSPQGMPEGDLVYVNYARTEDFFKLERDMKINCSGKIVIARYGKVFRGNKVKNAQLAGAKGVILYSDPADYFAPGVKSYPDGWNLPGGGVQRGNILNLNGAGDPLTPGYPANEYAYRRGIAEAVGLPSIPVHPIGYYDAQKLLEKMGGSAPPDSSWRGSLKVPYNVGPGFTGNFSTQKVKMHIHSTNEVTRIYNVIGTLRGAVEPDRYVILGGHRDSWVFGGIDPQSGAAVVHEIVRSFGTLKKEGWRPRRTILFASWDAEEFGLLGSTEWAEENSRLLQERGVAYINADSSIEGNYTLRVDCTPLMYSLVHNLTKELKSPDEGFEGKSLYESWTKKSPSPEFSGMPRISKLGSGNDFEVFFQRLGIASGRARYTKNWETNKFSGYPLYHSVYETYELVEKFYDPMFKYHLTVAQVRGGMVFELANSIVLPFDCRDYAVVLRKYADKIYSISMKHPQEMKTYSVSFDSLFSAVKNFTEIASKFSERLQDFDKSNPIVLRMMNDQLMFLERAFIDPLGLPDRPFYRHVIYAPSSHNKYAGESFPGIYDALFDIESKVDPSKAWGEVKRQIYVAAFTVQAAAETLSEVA
Numbered stars: 1 amine (or outer) side, 2 acyl side, 3 side chain; on linkers, the order of the positions; unused ones are H or OH. Bridge positions count the residues as written; N and C are the ends. Square brackets hold non-standard residues; d marks the D form. Peptide text beside a SMILES is read from it. * marks the point of attachment. DOTA = O=C(O)CN1CCN(CC(=O)O)CCN(CC(=O)*)CCN(CC(=O)O)CC1; Phe(4-Cl) = N[C@@H](Cc1ccc(Cl)cc1)C(=O)O; X1 = O=C(CC1CCN([*:1])CC1)[*:2]; Tle = CC(C)(C)[C@H](N)C(=O)O; Aib = CC(C)(N)C(=O)O
Measure Name: Kd

Inquiry: Kindly indicate its recorded Kd. Item: CC(=O)N[C@H](C(=O)NC(C)(C)C(=O)N[C@@H](Cc1ccc(Cl)cc1)C(=O)N[C@H]1CSSC[C@@H](C(=O)N[C@H](C(=O)N[C@H](C(=O)N2CCC(CC(=O)N[C@H](CCCCNC(=O)CN3CCN(CC(=O)O)CCN(CC(=O)O)CCN(CC(=O)O)CC3)C(N)=O)CC2)[C@@H](C)O)C(C)(C)C)NC(=O)[C@H](CC(N)=O)NC(=O)C(C)(C)NC(=O)[C@H](CCCNC(=N)N)NC(=O)[C@H](CCCCN)NC1=O)[C@@H](C)O [PSM-0482] (Ac-T[Aib][Phe(4-Cl)]CKR[Aib]NC[Tle]T[X1][dK](DOTA)-NH2; disulfide 4-9)
Reply text: < 12.6 nM

----------
target: PSMA-expressing C4-2 cells (Homo sapiens, UniProt Q04609); construct: PSMA-expressing C4-2 cells (ATCC, Cat. No. CRL-3314) were cultured in RPMI-1640; host or cells: C4-2 cells; experiment: FACS binding assay (competition with 50 nM PSM-0183); conditions: pIC50 category of FACS binding, C4-2 cells; read-out: pIC50 [C4-2] CAT (converted)
Sequence (Q04609 whole entry): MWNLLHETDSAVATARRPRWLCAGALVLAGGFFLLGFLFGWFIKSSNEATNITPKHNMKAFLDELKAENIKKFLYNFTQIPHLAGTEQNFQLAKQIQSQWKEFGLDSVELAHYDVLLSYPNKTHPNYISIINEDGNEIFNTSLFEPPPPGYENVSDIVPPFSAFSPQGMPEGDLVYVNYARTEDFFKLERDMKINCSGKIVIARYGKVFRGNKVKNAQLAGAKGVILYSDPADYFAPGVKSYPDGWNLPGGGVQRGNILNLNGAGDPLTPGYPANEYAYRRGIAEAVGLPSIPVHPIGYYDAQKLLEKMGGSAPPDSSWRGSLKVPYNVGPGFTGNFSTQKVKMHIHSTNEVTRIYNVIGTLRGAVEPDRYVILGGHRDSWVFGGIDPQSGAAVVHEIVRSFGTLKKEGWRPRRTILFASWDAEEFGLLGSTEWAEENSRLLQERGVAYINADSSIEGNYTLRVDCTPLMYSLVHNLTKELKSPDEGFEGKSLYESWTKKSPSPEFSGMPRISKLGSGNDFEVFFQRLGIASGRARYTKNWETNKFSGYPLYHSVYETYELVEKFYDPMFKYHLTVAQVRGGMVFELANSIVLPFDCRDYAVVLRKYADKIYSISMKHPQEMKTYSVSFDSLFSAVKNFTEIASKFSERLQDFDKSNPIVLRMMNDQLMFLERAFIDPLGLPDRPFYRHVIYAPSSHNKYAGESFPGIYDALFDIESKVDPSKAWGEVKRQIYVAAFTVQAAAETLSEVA
Numbered stars: 1 amine (or outer) side, 2 acyl side, 3 side chain; on linkers, the order of the positions; unused ones are H or OH. Bridge positions count the residues as written; N and C are the ends. Square brackets hold non-standard residues; d marks the D form. Peptide text beside a SMILES is read from it. * marks the point of attachment. DOTA = O=C(O)CN1CCN(CC(=O)O)CCN(CC(=O)*)CCN(CC(=O)O)CC1; Phe(4-Cl) = N[C@@H](Cc1ccc(Cl)cc1)C(=O)O; Arg(Me) = CNC(=N)NCCC[C@H](N)C(=O)O; X1 = O=C(CC1CCN([*:1])CC1)[*:2]; Lys(Me) = CNCCCC[C@H](N)C(=O)O; Tle = CC(C)(C)[C@H](N)C(=O)O; Aib = CC(C)(N)C(=O)O
Measure Name: IC50

Inquiry: Give the observed IC50 of CNCCCC[C@@H]1NC(=O)[C@@H](NC(=O)[C@H](Cc2ccc(Cl)cc2)NC(=O)C(C)(C)NC(=O)[C@@H](NC(=O)CC2CCN(C(=O)CN3CCN(CC(=O)O)CCN(CC(=O)O)CCN(CC(=O)O)CC3)CC2)[C@@H](C)O)CSSC[C@@H](C(=O)N[C@H](C(N)=O)C(C)(C)C)NC(=O)[C@H](CC(N)=O)NC(=O)C(C)(C)NC(=O)[C@H](CCCNC(=N)NC)NC1=O [PSM-0380] ({DOTA}-[X1]T[Aib][Phe(4-Cl)]C[Lys(Me)][Arg(Me)][Aib]NC[Tle]-NH2; disulfide 5-10) for PSMA-expressing C4-2 cells (Homo sapiens, UniProt Q04609).
Reply text: < 200 nM

----------
tested on: PC3-PIP tumor model; parameters: species or system mice; conditions: mouse, in vivo
Numbered stars: 1 amine (or outer) side, 2 acyl side, 3 side chain; on linkers, the order of the positions; unused ones are H or OH. Bridge positions count the residues as written; N and C are the ends. Square brackets hold non-standard residues; d marks the D form. Peptide text beside a SMILES is read from it. * marks the point of attachment. DOTA = O=C(O)CN1CCN(CC(=O)O)CCN(CC(=O)*)CCN(CC(=O)O)CC1; Phe(4-Cl) = N[C@@H](Cc1ccc(Cl)cc1)C(=O)O; X1 = O=C(CC1CCN([*:1])CC1)[*:2]; Tle = CC(C)(C)[C@H](N)C(=O)O; Aib = CC(C)(N)C(=O)O
Measure Name: Tumor AUC (% ID/g*h)
State just the number; it will be interpreted in % ID/g*h.

Inquiry: Kindly indicate its recorded Tumor AUC. Item: C[C@@H](O)[C@H](NC(=O)CN1CCN(CC(=O)O)CCN(CC(=O)O)CCN(CC(=O)O)CC1)C(=O)NC(C)(C)C(=O)N[C@@H](Cc1ccc(Cl)cc1)C(=O)N[C@H]1CSSC[C@@H](C(=O)N[C@H](C(N)=O)C(C)(C)C)NC(=O)[C@H](CC(N)=O)NC(=O)C(C)(C)NC(=O)[C@H](CCCNC(=N)N)NC(=O)[C@H](CCCCN)NC1=O [PSM-0534] ({DOTA}-T[Aib][Phe(4-Cl)]CKR[Aib]NC[Tle]-NH2; disulfide 4-9)
Reply text: 220

Shifting focus to the compound that follows.
Inquiry: Kindly indicate its recorded Tumor AUC. Item: CC(=O)N[C@H](C(=O)NC(C)(C)C(=O)N[C@@H](Cc1ccccc1)C(=O)N[C@H]1CSSC[C@@H](C(=O)N[C@H](C(=O)N[C@H](C(=O)N2CCC(CC(=O)N[C@H](CCCCNC(=O)CN3CCN(CC(=O)O)CCN(CC(=O)O)CCN(CC(=O)O)CC3)C(N)=O)CC2)[C@@H](C)O)C(C)(C)C)NC(=O)[C@H](CC(N)=O)NC(=O)C(C)(C)NC(=O)[C@H](CCCNC(=N)N)NC(=O)[C@H](CCCCN)NC1=O)[C@@H](C)O [PSM-0428] (Ac-T[Aib]FCKR[Aib]NC[Tle]T[X1][dK](DOTA)-NH2; disulfide 4-9)
Reply text: 170

----------
biological target: PSMA-expressing C4-2 cells (Homo sapiens, UniProt Q04609); construct: PSMA-expressing C4-2 cells (ATCC, Cat. No. CRL-3314) were cultured in RPMI-1640; host or cells: C4-2 cells; assay: FACS binding assay (competition with 50 nM PSM-0183); details: pIC50 category of FACS binding, C4-2 cells; read-out: pIC50 [C4-2] CAT (converted)
Numbered stars: 1 amine (or outer) side, 2 acyl side, 3 side chain; on linkers, the order of the positions; unused ones are H or OH. Bridge positions count the residues as written; N and C are the ends. Square brackets hold non-standard residues; d marks the D form. Peptide text beside a SMILES is read from it. * marks the point of attachment. DOTA = O=C(O)CN1CCN(CC(=O)O)CCN(CC(=O)*)CCN(CC(=O)O)CC1; Phe(4-Cl) = N[C@@H](Cc1ccc(Cl)cc1)C(=O)O; Arg(Me) = CNC(=N)NCCC[C@H](N)C(=O)O; NMeT = CN[C@H](C(=O)O)[C@@H](C)O; X1 = O=C(CC1CCN([*:1])CC1)[*:2]; Lys(Me) = CNCCCC[C@H](N)C(=O)O; Tle = CC(C)(C)[C@H](N)C(=O)O; Aib = CC(C)(N)C(=O)O; CH2 = C([*:1])[*:2]; βAla = NCCC(=O)O
Listed here: items and their measured IC50.

Worked cases, IC50 given:
Inquiry: Kindly indicate its recorded IC50. Item: CC(=O)N[C@H](C(=O)NC(C)(C)C(=O)N[C@@H](Cc1ccccc1)C(=O)N[C@H]1CSSC[C@@H](C(=O)N[C@H](C(=O)N[C@H](C(=O)N[C@@H](CC(=O)O)C(N)=O)[C@@H](C)O)C(C)(C)C)NC(=O)[C@H](CC(N)=O)NC(=O)[C@H](C)NC(=O)[C@H](CCCNC(=N)N)NC(=O)[C@H](CCC(N)=O)NC1=O)[C@@H](C)O [PSM-0435] (Ac-T[Aib]FCQRANC[Tle]TD-NH2; disulfide 4-9)
Reply text: < 0.2 µM

Inquiry: Kindly indicate its recorded IC50. Item: C[C@H](NC(=O)[C@H]([C@@H](C)O)N(C)C(=O)CC1CCN(C(=O)CN2CCN(CC(=O)O)CCN(CC(=O)O)CCN(CC(=O)O)CC2)CC1)C(=O)N[C@@H](Cc1ccc(Cl)cc1)C(=O)N[C@H]1CSSC[C@@H](C(=O)N[C@H](C(=O)N[C@H](C(N)=O)[C@@H](C)O)C(C)(C)C)NC(=O)[C@H](CC(N)=O)NC(=O)C(C)(C)NC(=O)[C@H](CCCNC(=N)N)NC(=O)[C@H](CCCCN)NC1=O [PSM-0455] ({DOTA}-[X1][NMeT]A[Phe(4-Cl)]CKR[Aib]NC[Tle]T-NH2; disulfide 5-10)
Reply text: 0.2 to 1.26 µM

Inquiry: Kindly indicate its recorded IC50. Item: C[C@@H](O)[C@H](NC(=O)CC1CCN(C(=O)CN2CCN(CC(=O)O)CCN(CC(=O)O)CCN(CC(=O)O)CC2)CC1)C(=O)NC(C)(C)C(=O)N[C@@H](Cc1ccccc1)C(=O)N[C@H]1CSSC[C@@H](C(=O)N[C@H](C(=O)NCCC(N)=O)C(C)(C)C)NC(=O)[C@H](CC(N)=O)NC(=O)C(C)(C)NC(=O)[C@H](CCCNC(=N)N)NC(=O)[C@H](CCCCN)NC1=O [PSM-0449] ({DOTA}-[X1]T[Aib]FCKR[Aib]NC[Tle][βAla]-NH2; disulfide 5-10)
Reply text: < 0.2 µM

Inquiry: Kindly indicate its recorded IC50. Item: CNCCCC[C@@H]1NC(=O)[C@@H](NC(=O)[C@H](Cc2ccc(Cl)cc2)NC(=O)C(C)(C)NC(=O)[C@@H](NC(=O)CC2CCN(C(=O)CN3CCN(CC(=O)O)CCN(CC(=O)O)CCN(CC(=O)O)CC3)CC2)[C@@H](C)O)CSCSC[C@@H](C(=O)N[C@H](C(N)=O)C(C)(C)C)NC(=O)[C@H](CC(N)=O)NC(=O)C(C)(C)NC(=O)[C@H](CCCNC(=N)NC)NC1=O [PSM-0420] ({DOTA}-[X1]T[Aib][Phe(4-Cl)]C[Lys(Me)][Arg(Me)][Aib]NC[Tle]-NH2; linker 5-10 via CH2)
Reply text: < 0.2 µM

Shifting focus to the compound that follows.
Inquiry: Kindly indicate its recorded IC50. Item: CC(=O)N[C@H](C(=O)NC(C)(C)C(=O)N[C@@H](Cc1ccccc1)C(=O)N[C@H]1CSSC[C@@H](C(=O)N[C@H](C(=O)N[C@H](C(=O)N[C@@H](CC(=O)O)C(N)=O)[C@@H](C)O)C(C)(C)C)NC(=O)[C@H](CC(N)=O)NC(=O)C(C)(C)NC(=O)[C@H](CCCNC(=N)N)NC(=O)[C@H](CCCCN)NC1=O)[C@@H](C)O [PSM-0374] (Ac-T[Aib]FCKR[Aib]NC[Tle]TD-NH2; disulfide 4-9)
Reply text: < 0.2 µM

Taken from patent US20260083865A1.
